assay procedure: Aqueous solubility of the compound in citrate buffer at pH 4
Type: physicochemical
value type: solubility (µg/mL)

>  <item smiles>
C[C@@]1(c2cc(F)cc(F)c2)CNC2(CCCC2)C(=O)N1CC(=O)Nc1cnc2c(c1)C[C@@]1(C2)C(=O)Nc2ncccc21

>  <observed>
3200

$$$$

---

study target: Sodium channel protein type 5 subunit alpha (Homo sapiens)
Sequence (Q14524 whole entry): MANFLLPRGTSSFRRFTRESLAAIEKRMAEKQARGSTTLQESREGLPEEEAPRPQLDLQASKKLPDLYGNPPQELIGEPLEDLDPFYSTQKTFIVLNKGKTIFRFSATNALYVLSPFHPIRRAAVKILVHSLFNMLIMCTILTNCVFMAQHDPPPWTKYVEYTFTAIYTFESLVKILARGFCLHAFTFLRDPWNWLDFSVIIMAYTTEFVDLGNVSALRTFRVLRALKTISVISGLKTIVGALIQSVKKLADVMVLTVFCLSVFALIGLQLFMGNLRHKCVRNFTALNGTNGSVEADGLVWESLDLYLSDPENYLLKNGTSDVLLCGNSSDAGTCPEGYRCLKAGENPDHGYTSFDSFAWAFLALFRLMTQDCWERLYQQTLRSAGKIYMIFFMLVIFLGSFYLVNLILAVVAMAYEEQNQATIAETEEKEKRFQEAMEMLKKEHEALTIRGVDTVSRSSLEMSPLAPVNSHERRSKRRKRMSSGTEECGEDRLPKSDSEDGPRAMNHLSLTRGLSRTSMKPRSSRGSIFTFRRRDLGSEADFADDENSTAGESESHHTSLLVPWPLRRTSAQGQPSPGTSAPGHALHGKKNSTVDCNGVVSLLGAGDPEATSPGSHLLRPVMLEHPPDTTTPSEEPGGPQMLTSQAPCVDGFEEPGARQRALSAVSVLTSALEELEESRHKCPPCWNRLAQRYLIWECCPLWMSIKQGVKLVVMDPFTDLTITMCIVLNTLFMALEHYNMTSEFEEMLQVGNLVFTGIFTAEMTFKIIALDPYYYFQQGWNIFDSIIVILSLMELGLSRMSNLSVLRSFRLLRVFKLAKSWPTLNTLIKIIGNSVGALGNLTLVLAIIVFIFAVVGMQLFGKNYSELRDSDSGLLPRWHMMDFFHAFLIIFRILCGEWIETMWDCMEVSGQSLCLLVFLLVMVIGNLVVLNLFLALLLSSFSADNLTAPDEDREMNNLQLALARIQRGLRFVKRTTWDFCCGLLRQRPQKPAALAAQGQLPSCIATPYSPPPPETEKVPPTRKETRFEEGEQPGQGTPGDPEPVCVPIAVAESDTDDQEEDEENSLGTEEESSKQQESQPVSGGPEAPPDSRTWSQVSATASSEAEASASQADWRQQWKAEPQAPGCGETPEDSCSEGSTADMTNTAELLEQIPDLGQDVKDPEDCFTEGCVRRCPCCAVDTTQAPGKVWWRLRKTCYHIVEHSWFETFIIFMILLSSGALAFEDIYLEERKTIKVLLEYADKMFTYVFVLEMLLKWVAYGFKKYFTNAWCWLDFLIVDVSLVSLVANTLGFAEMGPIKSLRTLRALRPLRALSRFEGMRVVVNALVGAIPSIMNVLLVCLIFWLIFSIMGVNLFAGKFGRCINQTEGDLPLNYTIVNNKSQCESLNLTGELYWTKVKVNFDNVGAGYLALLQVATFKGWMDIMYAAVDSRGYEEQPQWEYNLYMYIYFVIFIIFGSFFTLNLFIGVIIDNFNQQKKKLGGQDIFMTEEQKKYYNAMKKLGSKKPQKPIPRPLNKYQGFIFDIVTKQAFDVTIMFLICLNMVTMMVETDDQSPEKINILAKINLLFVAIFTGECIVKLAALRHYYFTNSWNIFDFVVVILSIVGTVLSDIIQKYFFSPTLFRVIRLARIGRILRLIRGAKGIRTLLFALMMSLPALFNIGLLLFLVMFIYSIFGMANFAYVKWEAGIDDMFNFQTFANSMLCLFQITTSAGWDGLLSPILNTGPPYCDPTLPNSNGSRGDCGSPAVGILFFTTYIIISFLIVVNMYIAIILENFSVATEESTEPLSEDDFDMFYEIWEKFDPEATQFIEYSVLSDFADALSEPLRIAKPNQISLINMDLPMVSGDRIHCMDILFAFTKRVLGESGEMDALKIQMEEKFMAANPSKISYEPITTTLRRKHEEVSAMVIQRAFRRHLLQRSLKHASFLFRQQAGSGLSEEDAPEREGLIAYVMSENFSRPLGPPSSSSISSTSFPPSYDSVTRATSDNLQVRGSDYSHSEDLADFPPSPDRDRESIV
assay procedure: Inhibition of NaV1.5 ion channel by voltage clamp assay
pIC50: −log10 of the molar value.
value type: pIC50

>  <item smiles>
C[C@@]1(c2cc(F)cc(F)c2)CNC2(CCCC2)C(=O)N1CC(=O)Nc1cnc2c(c1)C[C@@]1(C2)C(=O)Nc2ncccc21

>  <observed>
< 4.70

$$$$
